Items are presented alongside their recorded Emission(MeOH).
test: Absorbance and fluorescence spectra of the agents; type: physicochemical; settings: fluorescence emission maximum in MeOH

| compound-smiles | unit-abbrev | Emission(MeOH) |
| --- | --- | --- |
| COc1cc(/C=C/c2ccc(S(=O)(=O)N(CCO)CCO)cc2)ccc1/C=C/c1ccc(N)cc1 | nm | 680 |
| COc1cc(/C=C/c2ccc(S(=O)(=O)N3CCOCC3)cc2)ccc1/C=C/c1ccc(N)cc1 | nm | 604 |
| COc1cc(/C=C/c2ccc(S(=O)(=O)N3CCN(CCO)CC3)cc2)ccc1/C=C/c1ccc(N)cc1.Cl | nm | 488 |

* * *

experiment: Absorbance and fluorescence spectra of the agents; type: physicochemical; conditions: excitation maximum in 100% DMSO

| compound-smiles | Excitation (DMSO) / nm |
| --- | --- |
| COc1cc(/C=C/c2ccc(S(=O)(=O)N3CCOCC3)cc2)ccc1/C=C/c1ccc(N)cc1 | 422 |
| COc1cc(/C=C/c2ccc(S(=O)(=O)N3CCN(CCO)CC3)cc2)ccc1/C=C/c1ccc(N)cc1.Cl | 388 |
| COc1cc(/C=C/c2ccc(S(=O)(=O)N(CCO)CCO)cc2)ccc1/C=C/c1ccc(N)cc1 | 392 |

* * *

Items are presented alongside their recorded Emission(DMSO).
test: Absorbance and fluorescence spectra of the agents; assay type: physicochemical; conditions: fluorescence emission maximum in DMSO

| molecule | Emission(DMSO), nm |
| --- | --- |
| COc1cc(/C=C/c2ccc(S(=O)(=O)N3CCOCC3)cc2)ccc1/C=C/c1ccc(N)cc1 [(1)] | 621 |
| COc1cc(/C=C/c2ccc(S(=O)(=O)N3CCN(CCO)CC3)cc2)ccc1/C=C/c1ccc(N)cc1.Cl [(3)] | 615 |
| COc1cc(/C=C/c2ccc(S(=O)(=O)N(CCO)CCO)cc2)ccc1/C=C/c1ccc(N)cc1 [(2)] | 600 |
